Property: IC50; scope: individual compounds
Biological target: mTOR/GbL/Raptor (mTORC1) (Homo sapiens, UniProt P42345)
Test: mTOR/GbL/Raptor (mTORC1) ELISA assay, phosphorylation of 4E-BP1
Settings: 0.2 nM mTORC1, 40 uM ATP, 50 nM NHis-tagged 4E-BP1, 120 minutes; read-out: IC50 in this assay (mTORC1 ELISA)

IC50 of CCc1cnc(CN(C)C)nc1N1CCOc2c(C)cc(-c3cnc4sc(N)nc4c3)cc2C1 on mTOR/GbL/Raptor (mTORC1) (Homo sapiens, UniProt P42345)?
≤ 100 nM

New cases:
IC50 of Cc1cc(-c2ccc(N)nc2)cc2c1OCCN(c1nc(N)nc(C)c1C(C)C)C2 on mTOR/GbL/Raptor (mTORC1) (Homo sapiens, UniProt P42345)?
100 to 500 nM

IC50 of Cc1cc(-c2cnc3sc(N)nc3c2)cc2c1OCCN(c1nc(N)c(C#N)c(C)c1C#N)C2 on mTOR/GbL/Raptor (mTORC1) (Homo sapiens, UniProt P42345)?
≤ 100 nM

IC50 of Cc1cnccc1N1CCOc2c(C)cc(-c3cnc4sc(N)nc4c3)cc2C1 on mTOR/GbL/Raptor (mTORC1) (Homo sapiens, UniProt P42345)?
100 to 500 nM

###

Molecular target: mTOR/GbL/Raptor (mTORC1) (Homo sapiens)
Test: mTOR/GbL/Raptor (mTORC1) ELISA assay, phosphorylation of 4E-BP1
Assay type: biochemical
Conditions: 0.2 nM mTORC1, 40 uM ATP, 50 nM NHis-tagged 4E-BP1, 120 minutes; read-out: IC50 in this assay (mTORC1 ELISA)
Procedure: The measurement of mTORC1 enzyme activity was performed in an ELISA assay format following the phosphorylation of 4E-BP1 protein. All experiments were performed in the 384-well format. Generally, 0.5 μL DMSO containing varying concentrations of the test Compound was mixed with 15 μL enzyme solution. […] Following the final wash step with TBST, 20 μL of SuperSignal ELISA Femto (Pierce Biotechnology) was added and the luminescence measured using an En Vision plate reader.
pIC50: −log10 of the molar value.
ENDPOINT LABEL: pIC50

Below are worked cases with known answers.
Reported pIC50 for CCCc1c(C)nc(N)nc1N1CCOc2c(C)cc(-c3cnc4sc(N)nc4c3)cc2C1 : what is it?
≥ 7.00

Reported pIC50 for Cc1cc(-c2cnc3nc[nH]c3c2)cc2c1OCCN(c1nc(CN(C)CC(F)F)nc(C)c1C(C)C)C2 : what is it?
6.30 to 7.00

Reported pIC50 for COCCc1c(C)nc(N)nc1N1CCOc2c(C)cc(-c3cnc4sc(N)nc4c3)cc2C1 : what is it?
≥ 7.00

Reported pIC50 for Cc1nc2ccc(-c3cc(C)c4c(c3)CN(c3ncnc5ccc(I)cc35)CCO4)cc2[nH]1 : what is it?
6.30 to 7.00

Reported pIC50 for Cc1ncc(C(C)C)c(N2CCOc3c(C)cc(-c4cnc5sc(N)nc5c4)cc3C2)n1 : what is it?
≥ 7.00

Reported pIC50 for Cc1cc(-c2cnc3nc[nH]c3c2)cc2c1OCCN(c1nc(N)nc(C)c1C(C)C)C2 : what is it?
≥ 7.00

Reported pIC50 for Cc1cc(-c2cnc3sc(N)nc3c2)cc2c1OCCN(c1nc(N)nc(C)c1CC1CC1)C2 : what is it?
≥ 7.00

Then there is this compound:
Reported pIC50 for Cc1cnc(N2CCOc3c(C)cc(-c4cnc5sc(N)nc5c4)cc3C2)nc1N : what is it?
6.30 to 7.00

###

Biological target: mTOR/GbL/Raptor (mTORC1) (Homo sapiens, UniProt P42345)
Test: mTOR/GbL/Raptor (mTORC1) ELISA assay, phosphorylation of 4E-BP1
Settings: 0.2 nM mTORC1, 40 uM ATP, 50 nM NHis-tagged 4E-BP1, 120 minutes; read-out: IC50 in this assay (mTORC1 ELISA)
ENDPOINT LABEL: IC50

Below are worked cases with known answers.
Reported IC50 for Cc1cc(-c2cnc(Cl)c(NS(=O)(=O)C(F)(F)F)c2)cc2c1OCCN(c1nc(N)nc(C)c1C(C)C)C2 [Compound 52] : what is it?
≤ 100 nM

Reported IC50 for Cc1cc(-c2cnc3nc[nH]c3c2)cc2c1OCCN(c1nc(CNCC(F)F)nc(C)c1C(C)C)C2 [Compound 165] : what is it?
≤ 100 nM

Reported IC50 for Cc1cc(-c2cnc3sc(N)nc3c2)cc2c1OCCN(c1nc(N)nc(C)c1C(C)C)C2 [Compound 3] : what is it?
≤ 100 nM

Reported IC50 for Cc1cc(-c2cnc3sc(N)nc3c2)cc2c1OCCN(c1nc(N)ncc1C(C)C)C2 [Compound 11] : what is it?
≤ 100 nM

Reported IC50 for C=Cc1cnc(N)nc1N1CCOc2c(C)cc(-c3cnc4sc(N)nc4c3)cc2C1 [Compound 89] : what is it?
≤ 100 nM

Reported IC50 for Cc1cc(-c2cnc(Cl)c(NS(C)(=O)=O)c2)cc2c1OCCN(c1ncc(C(F)(F)F)c(N)n1)C2 [Compound 15] : what is it?
100 to 500 nM

Reported IC50 for COCCOc1nc(C)c(C(C)C)c(N2CCOc3c(C)cc(-c4cnc5sc(N)nc5c4)cc3C2)n1 [Compound 154] : what is it?
≤ 100 nM

Then there is this compound:
Reported IC50 for Cc1cc(-c2ccnc(F)c2)cc2c1OCCN(c1nc(N)nc(C)c1C(C)C)C2 [Compound 83] : what is it?
100 to 500 nM

###

Target: mTOR/GbL/Raptor (mTORC1) (Homo sapiens)
Test: mTOR/GbL/Raptor (mTORC1) ELISA assay, phosphorylation of 4E-BP1
Details: 0.2 nM mTORC1, 40 uM ATP, 50 nM NHis-tagged 4E-BP1, 120 minutes; read-out: IC50 in this assay (mTORC1 ELISA)
Property: IC50; scope: individual compounds

Below are worked cases with known answers.
IC50 of Cc1cc(-c2cnc3sc(N)nc3c2)cc2c1OCCN(c1ncnc(Cl)c1C(C)C)C2 on mTOR/GbL/Raptor (mTORC1) (Homo sapiens)?
≤ 0.1 µM

IC50 of CCc1nc(CN(C)C)nc(N2CCOc3c(C)cc(-c4cnc5sc(N)nc5c4)cc3C2)c1CC on mTOR/GbL/Raptor (mTORC1) (Homo sapiens)?
≤ 0.1 µM

IC50 of Cc1cc(-c2cnc(O)c(NS(C)(=O)=O)c2)cc2c1OCCN(c1nc(N)nc(C)c1C(C)C)C2 on mTOR/GbL/Raptor (mTORC1) (Homo sapiens)?
≤ 0.1 µM

Then there is this compound:
IC50 of Cc1cc(-c2cccc(N)c2)cc2c1OCCN(c1nc(N)nc(C)c1C(C)C)C2 on mTOR/GbL/Raptor (mTORC1) (Homo sapiens)?
0.1 to 0.5 µM

###

Property: IC50; scope: individual compounds
Biological target: mTOR/GbL/Raptor (mTORC1) (Homo sapiens)
Test: mTOR/GbL/Raptor (mTORC1) ELISA assay, phosphorylation of 4E-BP1
Conditions: 0.2 nM mTORC1, 40 uM ATP, 50 nM NHis-tagged 4E-BP1, 120 minutes; read-out: IC50 in this assay (mTORC1 ELISA)

Reported IC50 for Cc1cc(-c2cnc3sc(N)nc3c2)cc2c1OCCN(c1ncc(C(F)(F)F)c(N)n1)C2 [Compound 13] : what is it?
100 to 500 nM

Reported IC50 for Cc1cc(-c2cnc3sc(N)nc3c2)cc2c1OCCN(c1ncnc(C)c1C(C)C)C2 [Compound 87] : what is it?
≤ 100 nM

Reported IC50 for Cc1cc(-c2cnc3sc(N)nc3c2)cc2c1OCCN(c1nc(C3CC3)nc(C)c1C(C)C)C2 [Compound 150] : what is it?
≤ 100 nM

Reported IC50 for Cc1cc(-c2nnc(N)s2)cc2c1OCCN(c1ncnc(C)c1C(C)C)C2 [Compound 173] : what is it?
≤ 100 nM

Reported IC50 for Cc1cc(-c2cnc3sc(N)nc3c2)cc2c1OCCN(c1nc(N)nc(C)c1-c1cccc(F)c1)C2 [Compound 49] : what is it?
≤ 100 nM

###

Target: mTOR/GbL/Raptor (mTORC1) (Homo sapiens, UniProt P42345)
Assay: mTOR/GbL/Raptor (mTORC1) ELISA assay, phosphorylation of 4E-BP1
Conditions: 0.2 nM mTORC1, 40 uM ATP, 50 nM NHis-tagged 4E-BP1, 120 minutes; read-out: IC50 in this assay (mTORC1 ELISA)
pIC50: −log10 of the molar value.
ENDPOINT LABEL: pIC50

Below are worked cases with known answers.
Reported pIC50 for Cc1cc(-c2cnc(Cl)c(NS(C)(=O)=O)c2)cc2c1OCCN(c1nc(C(N)=O)nc(C)c1C(C)C)C2 [Compound 44] : what is it?
≥ 7.00

Reported pIC50 for Cc1cc(-c2cn(C)nc2C)cc2c1OCCN(c1nc(N)nc(C)c1C(C)C)C2 [Compound 109] : what is it?
6.30 to 7.00

Reported pIC50 for Cc1nc2ccc(-c3cc(C)c4c(c3)CN(c3nc(N)nc(C)c3C(C)C)CCO4)cc2[nH]1 [Compound 2] : what is it?
≥ 7.00

Reported pIC50 for Cc1cc(-c2cnc3sc(N)nc3c2)cc2c1OCCN(c1ncc(F)c(N)n1)C2 [Compound 35] : what is it?
6.30 to 7.00

Reported pIC50 for Cc1cc(-c2cncc(NS(C)(=O)=O)c2)cc2c1OCCN(c1nc(N)nc(C)c1C(C)C)C2 [Compound 18] : what is it?
6.30 to 7.00

Reported pIC50 for Cc1cc(-c2nnc(N)s2)cc2c1OCCN(c1ncnc(C)c1C)C2 [Compound 176] : what is it?
≥ 7.00

Reported pIC50 for Cc1cc(-c2cnc3sc(N)nc3c2)cc2c1OCCN(c1nc(CN(C)C)ncc1C(C)C)C2 [Compound 58] : what is it?
≥ 7.00

Reported pIC50 for COCCc1c(C)nc(C)nc1N1CCOc2c(C)cc(-c3cnc4sc(N)nc4c3)cc2C1 [Compound 132] : what is it?
≥ 7.00

New cases:
Reported pIC50 for Cc1cc(-c2cnc3sc(N)nc3c2)cc2c1OCCN(c1nc(CN(C)C(C)(C)C)nc(C)c1C(C)C)C2 [Compound 100] : what is it?
6.30 to 7.00

Reported pIC50 for Cc1cc(-c2cnc3sc(N)nc3c2)cc2c1OCCN(c1ncc(C#N)c(N)n1)C2 [Compound 26] : what is it?
6.30 to 7.00

Reported pIC50 for COc1ccc(-c2cc(C)c3c(c2)CN(c2nc(N)nc(C)c2C(C)C)CCO3)cc1OC [Compound 78] : what is it?
6.30 to 7.00

Reported pIC50 for Cc1cc(-c2cncnc2)cc2c1OCCN(c1nc(N)nc(C)c1C(C)C)C2 [Compound 71] : what is it?
6.30 to 7.00

Reported pIC50 for Cc1cc(-c2cnc(Cl)c(NS(C)(=O)=O)c2)cc2c1OCCN(c1nc(CNCCF)nc(C)c1C(C)C)C2 [Compound 161] : what is it?
≥ 7.00

Reported pIC50 for CCc1nc(CN(C)C)nc(N2CCOc3c(C)cc(-c4cnc5sc(N)nc5c4)cc3C2)c1C(C)C [Compound 88] : what is it?
≥ 7.00

Reported pIC50 for Cc1cc(-c2cnc3sc(N)nc3c2)cc2c1OCCN(c1nc(C3CCCN3C)nc(C)c1C(C)C)C2 (centres unmarked) [Compound 149] : what is it?
≥ 7.00

Reported pIC50 for Cc1cc(-c2cnc3sc(N)nc3c2)cc2c1OCCN(c1nc([S+](C)[O-])nc(C)c1C(C)C)C2 (centres unmarked) [Compound 99] : what is it?
≥ 7.00

Reported pIC50 for COc1ncc(-c2cc(C)c3c(c2)CN(c2nc(N)nc(C)c2C(C)C)CCO3)cc1NS(C)(=O)=O [Compound 21] : what is it?
≥ 7.00

Reported pIC50 for Cc1cc(-c2cnc3sc(N)nc3c2)cc2c1OCCN(c1ccc(C#N)cn1)C2 [Compound 36] : what is it?
6.30 to 7.00

Reported pIC50 for Cc1cc(-c2nnc(N)s2)cc2c1OCCN(c1ncncc1C(C)C)C2 [Compound 177] : what is it?
≥ 7.00

Reported pIC50 for Cc1cc(-c2cnc3sc(N)nc3c2)cc2c1OCCN(c1nccnc1C#N)C2 [Compound 34] : what is it?
≥ 7.00

Reported pIC50 for CCc1cc(-c2cnc3sc(N)nc3c2)cc2c1OCCN(c1nc(N)nc(C)c1C(C)C)C2 [Compound 17] : what is it?
≥ 7.00

Reported pIC50 for Cc1cc(-c2cn[nH]c2)cc2c1OCCN(c1nc(N)nc(C)c1C(C)C)C2 [Compound 80] : what is it?
≥ 7.00

Reported pIC50 for Cc1cc(-c2cnc3sc(N)nc3c2)cc2c1OCCN(c1nc(CN3CCCC3)ncc1C(C)C)C2 [Compound 92] : what is it?
≥ 7.00

Reported pIC50 for Cc1cc(-c2cnc3sc(N)nc3c2)cc2c1OCCN(c1ncccc1C(N)=O)C2 [Compound 39] : what is it?
6.30 to 7.00

Reported pIC50 for Cc1cc(-c2cnc3sc(N)nc3c2)cc2c1OCCN(c1nc(N)nc3c1CC(C)(C)CC3)C2 [Compound 10] : what is it?
≥ 7.00

Reported pIC50 for CNc1nc(-c2cc(C)c3c(c2)CN(c2nc(N)nc(C)c2C(C)C)CCO3)cs1 [Compound 112] : what is it?
6.30 to 7.00

Reported pIC50 for Cc1nc2cc(-c3cc(C)c4c(c3)CN(c3nc(N)nc(C)c3C(C)C)CCO4)cnc2[nH]1 [Compound 162] : what is it?
≥ 7.00

Reported pIC50 for Cc1cc(-c2cnc(Cl)c(NS(C)(=O)=O)c2)cc2c1OCCN(c1nc(N)nc(C)c1C(C)C)C2 [Compound 6] : what is it?
≥ 7.00
